These entries and their values trace back to patent US5334595A.

Target: human topoisomerase II (Homo sapiens, UniProt P11388)
Construct: Topo II was purified from late log phase suspension cultures of HeLa WIS; endogenous in cells; host or cells: HeLa WIS
Sequence (P11388 whole entry): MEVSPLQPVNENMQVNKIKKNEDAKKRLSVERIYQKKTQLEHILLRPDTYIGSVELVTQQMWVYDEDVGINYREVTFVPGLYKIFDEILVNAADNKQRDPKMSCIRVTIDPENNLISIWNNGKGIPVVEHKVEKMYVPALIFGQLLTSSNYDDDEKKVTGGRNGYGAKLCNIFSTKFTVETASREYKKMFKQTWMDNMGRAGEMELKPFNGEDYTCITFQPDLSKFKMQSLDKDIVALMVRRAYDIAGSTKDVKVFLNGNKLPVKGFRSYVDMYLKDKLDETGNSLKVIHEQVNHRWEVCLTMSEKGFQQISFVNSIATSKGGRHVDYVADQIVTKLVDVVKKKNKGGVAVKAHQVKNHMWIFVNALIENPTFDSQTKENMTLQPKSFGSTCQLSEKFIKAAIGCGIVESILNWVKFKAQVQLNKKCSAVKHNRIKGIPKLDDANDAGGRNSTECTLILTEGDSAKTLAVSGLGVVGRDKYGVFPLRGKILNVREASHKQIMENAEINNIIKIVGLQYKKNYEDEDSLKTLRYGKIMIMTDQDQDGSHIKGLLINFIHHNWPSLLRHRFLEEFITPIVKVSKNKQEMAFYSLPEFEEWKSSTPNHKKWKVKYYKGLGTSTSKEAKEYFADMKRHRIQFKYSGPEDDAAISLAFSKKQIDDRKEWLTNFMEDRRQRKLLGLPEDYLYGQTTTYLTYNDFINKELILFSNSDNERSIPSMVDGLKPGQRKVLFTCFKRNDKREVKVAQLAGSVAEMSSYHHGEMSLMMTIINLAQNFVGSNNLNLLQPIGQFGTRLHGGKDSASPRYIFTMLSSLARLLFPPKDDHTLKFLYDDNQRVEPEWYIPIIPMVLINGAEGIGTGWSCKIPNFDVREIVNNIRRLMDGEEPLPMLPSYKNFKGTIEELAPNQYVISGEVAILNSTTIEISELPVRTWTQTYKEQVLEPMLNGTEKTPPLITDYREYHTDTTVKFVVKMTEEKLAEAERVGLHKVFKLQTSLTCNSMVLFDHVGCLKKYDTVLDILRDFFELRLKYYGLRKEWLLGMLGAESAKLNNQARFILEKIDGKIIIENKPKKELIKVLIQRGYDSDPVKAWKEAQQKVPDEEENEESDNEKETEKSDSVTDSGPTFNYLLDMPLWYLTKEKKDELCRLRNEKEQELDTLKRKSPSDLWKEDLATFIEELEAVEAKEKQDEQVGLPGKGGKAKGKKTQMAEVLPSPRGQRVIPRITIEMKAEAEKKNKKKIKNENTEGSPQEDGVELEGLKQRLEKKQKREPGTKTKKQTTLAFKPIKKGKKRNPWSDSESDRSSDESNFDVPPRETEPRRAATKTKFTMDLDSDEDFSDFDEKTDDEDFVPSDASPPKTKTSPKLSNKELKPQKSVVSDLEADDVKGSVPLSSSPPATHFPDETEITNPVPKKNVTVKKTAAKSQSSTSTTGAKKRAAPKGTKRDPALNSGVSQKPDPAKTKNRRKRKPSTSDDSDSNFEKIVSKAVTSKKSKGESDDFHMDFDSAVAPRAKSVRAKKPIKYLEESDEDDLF
Assay: Mammalian topoisomerase II inhibition assay (topo II covalently attached to DNA, relative to mAMSA)
Format: biochemical
Details: conc. achieving 50% of maximal effect of mAMSA; topo II from HeLa cells; read-out: topo II inh. EC50
observedProperty: pEC50
Numbers only, as −log10 of the molar value.

Below, 3 compounds whose answers are already recorded.
Cc1cc(-c2c(F)cc3c4nn(C)c(=O)c-4cn(C4CC4)c3c2F)cc(C)n1
5.23
CO[C@@H]1CCCC[C@@H]1n1nc2c3cc(F)c(-c4cc(C)nc(C)c4)c(F)c3n(C3CC3)cc-2c1=O (relative stereo)
5.20
Cc1cc(-c2c(F)cc3c4nn(CC(=O)O)c(=O)c-4cn(C4CC4)c3c2F)cc(C)n1
5.00

The following compounds each have a reported value; give each one's pEC50.
1. Cc1cc(-c2c(F)cc3c4nn(C5CCCC5)c(=O)c-4cn(C4CC4)c3c2F)cc(C)n1
2. CC(=O)N[C@H]1CC[C@H](n2nc3c4cc(F)c(-c5cc(C)nc(C)c5)c(F)c4n(C4CC4)cc-3c2=O)CC1 [Example 52b]
3. CCN(CC)CCCn1nc2c3cc(F)c(-c4cc(C)nc(C)c4)c(F)c3n(C3CC3)cc-2c1=O
4. COc1ccccc1Cn1nc2c3cc(F)c(-c4cc(C)nc(C)c4)c(F)c3n(C3CC3)cc-2c1=O

Resp:
1. 5.40
2. 5.01
3. 5.22
4. 5.29
